Source of measurements: ChEMBL document CHEMBL2380244

- System: THP-1
- assay: Cytotoxicity against human THP1 cells assessed as cell viability measured ATP level at 10 uM after 6 hrs by celltiter-glo assay
- Format: cell-based
- assay_setup: thp-1, 6 h
result_type: Activity

Q: State, in one line, measured Activity of Cc1cc(Cl)ccc1CN(Cc1ccc(Cl)cc1)Cc1ccc([N+](=O)[O-])s1
Ans: Non-toxic

Q: State, in one line, measured Activity of N#Cc1ccc(CN(Cc2ccc(Cl)cc2)Cc2cccnc2)s1
Ans: Non-toxic

Q: State, in one line, measured Activity of O=[N+]([O-])c1ccc(CN(Cc2ccc(F)cc2)Cc2cccnc2)s1
Ans: Non-toxic

Q: State, in one line, measured Activity of N#Cc1ccc(CN(Cc2cccnc2)Cc2ccc(F)c(F)c2)s1
Ans: Non-toxic

====

Record form. Attribute: EC50. Fill in for each entry.
- measured_on: Nuclear receptor subfamily 1 group D member 1 (Homo sapiens)
- Sequence (P20393 whole entry): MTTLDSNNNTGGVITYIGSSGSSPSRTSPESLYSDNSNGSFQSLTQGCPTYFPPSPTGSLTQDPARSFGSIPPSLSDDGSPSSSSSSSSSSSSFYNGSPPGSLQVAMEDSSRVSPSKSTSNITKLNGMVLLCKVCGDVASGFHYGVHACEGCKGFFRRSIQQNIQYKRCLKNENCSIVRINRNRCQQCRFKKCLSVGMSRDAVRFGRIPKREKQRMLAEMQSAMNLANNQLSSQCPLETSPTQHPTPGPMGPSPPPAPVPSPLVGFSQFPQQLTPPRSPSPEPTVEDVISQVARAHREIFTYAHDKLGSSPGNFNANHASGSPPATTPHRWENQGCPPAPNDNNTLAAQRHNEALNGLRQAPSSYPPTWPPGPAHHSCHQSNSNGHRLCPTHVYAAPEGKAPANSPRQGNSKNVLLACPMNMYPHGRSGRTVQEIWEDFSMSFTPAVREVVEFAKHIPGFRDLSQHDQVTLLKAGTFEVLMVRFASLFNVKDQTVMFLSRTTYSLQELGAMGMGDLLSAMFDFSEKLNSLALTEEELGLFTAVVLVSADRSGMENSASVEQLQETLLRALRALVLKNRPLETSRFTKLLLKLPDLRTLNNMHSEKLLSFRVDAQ
- assay: Agonist activity at biotinylated REV-ERBalpha (unknown origin) assessed as increase in biotinylated NCOR peptide recruitment after 1 hr by FRET assay

Q: State, in one line, measured EC50 of COc1ccc(CN(Cc2cccnc2)Cc2ccc([N+](=O)[O-])s2)cc1
Ans: 0.2 µM

Q: State, in one line, measured EC50 of Clc1ccc(CN(Cc2cccnc2)Cc2nccs2)cc1
Ans: > 50 µM

Q: State, in one line, measured EC50 of CCCCCNC(=O)N1CCC(CN(Cc2ccc(Cl)cc2)Cc2ccc([N+](=O)[O-])s2)C1 (stereo not drawn) [SR9011]
Ans: > 50 µM

====

Record form. Attribute: TIME. Fill in for each entry.
- measured_on: Nuclear receptor subfamily 1 group D member 1 (Homo sapiens)
- assay: Agonist activity at REV-ERBalpha in human U2OS cells assessed as delay of peak of second cycle at 20 uM by luciferase reporter gene assay relative to DMSO-treated control
- Format: cell-based

Q: State, in one line, measured TIME of N#Cc1ccc(CN(Cc2cccnc2)Cc2cc(F)ccc2F)s1
Ans: 0 h

Q: State, in one line, measured TIME of N#Cc1ccc(CN(Cc2cccnc2)Cc2ccc(F)c(F)c2)s1
Ans: 0 h

Q: State, in one line, measured TIME of CC(C)CCN(Cc1ccc(Cl)cc1)Cc1ccc([N+](=O)[O-])s1
Ans: 0 h

Q: State, in one line, measured TIME of O=[N+]([O-])c1ccc(CN(Cc2ccc(F)cc2)Cc2cccnc2)s1
Ans: 0 h

Q: State, in one line, measured TIME of CCCCCNC(=O)N1CCC(CN(Cc2ccc(Cl)cc2)Cc2ccc([N+](=O)[O-])s2)C1 (stereo not given) [SR9011]
Ans: 1.3 h

Q: State, in one line, measured TIME of Cc1sc(CN(Cc2ccc(Cl)cc2)Cc2cccnc2)cc1Br
Ans: 0 h

Q: State, in one line, measured TIME of Cc1cccc(CN(Cc2cccnc2)Cc2ccc([N+](=O)[O-])s2)c1
Ans: 0.8 h

Q: State, in one line, measured TIME of Clc1ccc(CN(Cc2cccnc2)Cc2sccc2-n2cccc2)cc1
Ans: 0 h

Q: State, in one line, measured TIME of CC(C)(C)OC(=O)CN(Cc1ccc(Cl)cc1)Cc1ccc([N+](=O)[O-])s1 [GSK-4112]
Ans: 0 h

Q: State, in one line, measured TIME of Cc1ccccc1CN(Cc1cccnc1)Cc1ccc([N+](=O)[O-])s1
Ans: 0 h

====

- measured_on: Nuclear receptor subfamily 1 group D member 1 (Homo sapiens)
- assay: Agonist activity at REV-ERBalpha in human U2OS cells assessed as delay of peak of second cycle at 20 uM by luciferase reporter gene assay relative to DMSO-treated control
- Assay type: cell-based
result_type: TIME (h)
Reply with just the number (in h).

Q: Recall the reported TIME of CCOC(=O)N1CCC(CN(Cc2ccc(Cl)cc2)Cc2ccc([N+](=O)[O-])s2)C1 (stereo not drawn) when tested on Nuclear receptor subfamily 1 group D member 1 (Homo sapiens).
Ans: 1.3

Q: Recall the reported TIME of Clc1ccc(CN(Cc2cccnc2)Cc2cc3ccccc3s2)cc1 when tested on Nuclear receptor subfamily 1 group D member 1 (Homo sapiens).
Ans: 0

Q: Recall the reported TIME of COc1cccc(CN(Cc2cccnc2)Cc2ccc([N+](=O)[O-])s2)c1 when tested on Nuclear receptor subfamily 1 group D member 1 (Homo sapiens).
Ans: 0.5

Q: Recall the reported TIME of O=[N+]([O-])c1ccc(CN(Cc2ccc(Cl)cc2)Cc2ccccc2F)s1 when tested on Nuclear receptor subfamily 1 group D member 1 (Homo sapiens).
Ans: 0

Q: Recall the reported TIME of Cc1ccc(CN(Cc2cccnc2)Cc2ccc([N+](=O)[O-])s2)cc1 when tested on Nuclear receptor subfamily 1 group D member 1 (Homo sapiens).
Ans: 0

Q: Recall the reported TIME of Cc1cc(Cl)ccc1CN(Cc1ccc(Cl)cc1)Cc1ccc([N+](=O)[O-])s1 when tested on Nuclear receptor subfamily 1 group D member 1 (Homo sapiens).
Ans: 0

Q: Recall the reported TIME of N#Cc1ccc(CN(Cc2ccc(Cl)cc2)Cc2cccnc2)s1 when tested on Nuclear receptor subfamily 1 group D member 1 (Homo sapiens).
Ans: 0

Q: Recall the reported TIME of N#Cc1ccc(CN(Cc2cccnc2)Cc2ccccc2F)s1 when tested on Nuclear receptor subfamily 1 group D member 1 (Homo sapiens).
Ans: 0

====

Record form. Attribute: Activity. Fill in for each entry.
- measured_on: Nuclear receptor subfamily 1 group D member 1 (Homo sapiens) (UniProt P20393)
- Sequence (whole entry): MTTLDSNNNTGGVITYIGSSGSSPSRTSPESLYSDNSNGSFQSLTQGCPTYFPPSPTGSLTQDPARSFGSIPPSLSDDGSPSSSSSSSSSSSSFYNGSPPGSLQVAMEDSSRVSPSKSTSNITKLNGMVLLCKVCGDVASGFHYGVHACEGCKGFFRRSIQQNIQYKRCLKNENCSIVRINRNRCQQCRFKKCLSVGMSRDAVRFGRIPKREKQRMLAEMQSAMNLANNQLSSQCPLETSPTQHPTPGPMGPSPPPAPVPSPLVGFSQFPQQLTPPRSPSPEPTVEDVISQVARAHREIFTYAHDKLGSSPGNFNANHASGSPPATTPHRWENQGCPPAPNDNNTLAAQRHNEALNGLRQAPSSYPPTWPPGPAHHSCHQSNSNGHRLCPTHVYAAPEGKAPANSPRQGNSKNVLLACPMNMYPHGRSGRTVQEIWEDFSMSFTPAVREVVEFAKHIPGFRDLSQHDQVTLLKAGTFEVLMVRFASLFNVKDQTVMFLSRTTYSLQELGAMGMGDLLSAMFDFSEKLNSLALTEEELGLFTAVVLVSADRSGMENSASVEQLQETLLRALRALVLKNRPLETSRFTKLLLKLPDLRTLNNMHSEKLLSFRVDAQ
- assay: Agonist activity at REV-ERBalpha in human U2OS cells assessed as suppression of BMAL1 expression at 20 uM after 40 hrs by luciferase reporter gene assay relative to DMSO-treated control
- Assay type: cell-based
Reply with just the number (in %).

Q: State, in one line, measured Activity of Cc1cccc(CN(Cc2cccnc2)Cc2ccc([N+](=O)[O-])s2)c1
Ans: 41

Q: State, in one line, measured Activity of O=[N+]([O-])c1ccc(CN(Cc2ccc(Cl)cc2)Cc2ccccc2F)s1
Ans: 38

Q: State, in one line, measured Activity of Clc1ccc(CN(Cc2cccnc2)Cc2cc3ccccc3s2)cc1
Ans: 24

Q: State, in one line, measured Activity of N#Cc1ccc(CN(Cc2cccnc2)Cc2ccc(F)c(F)c2)s1
Ans: 37

Q: State, in one line, measured Activity of N#Cc1ccc(CN(Cc2ccc(Cl)cc2)Cc2cccnc2)s1
Ans: 23

Q: State, in one line, measured Activity of CCOC(=O)N1CCC(CN(Cc2ccc(Cl)cc2)Cc2ccc([N+](=O)[O-])s2)C1 (stereo not drawn)
Ans: 14

Q: State, in one line, measured Activity of CC(C)(C)OC(=O)CN(Cc1ccc(Cl)cc1)Cc1ccc([N+](=O)[O-])s1
Ans: 6

Q: State, in one line, measured Activity of O=[N+]([O-])c1ccc(CN(Cc2ccc(F)cc2)Cc2cccnc2)s1
Ans: 14

Q: State, in one line, measured Activity of Clc1ccc(CN(Cc2cccnc2)Cc2sccc2-n2cccc2)cc1
Ans: 30

Q: State, in one line, measured Activity of COc1cccc(CN(Cc2cccnc2)Cc2ccc([N+](=O)[O-])s2)c1
Ans: 42

Q: State, in one line, measured Activity of CC(C)CCN(Cc1ccc(Cl)cc1)Cc1ccc([N+](=O)[O-])s1
Ans: 21

Q: State, in one line, measured Activity of Cc1ccc(CN(Cc2cccnc2)Cc2ccc([N+](=O)[O-])s2)cc1
Ans: 23

Q: State, in one line, measured Activity of Cc1sc(CN(Cc2ccc(Cl)cc2)Cc2cccnc2)cc1Br
Ans: 16

Q: State, in one line, measured Activity of N#Cc1ccc(CN(Cc2cccnc2)Cc2cc(F)ccc2F)s1
Ans: 27

Q: State, in one line, measured Activity of N#Cc1ccc(CN(Cc2cccnc2)Cc2ccccc2F)s1
Ans: 6

Q: State, in one line, measured Activity of CCCCCNC(=O)N1CCC(CN(Cc2ccc(Cl)cc2)Cc2ccc([N+](=O)[O-])s2)C1 (stereo not drawn)
Ans: 20

Q: State, in one line, measured Activity of Cc1ccccc1CN(Cc1cccnc1)Cc1ccc([N+](=O)[O-])s1
Ans: 37

Q: State, in one line, measured Activity of Cc1cc(Cl)ccc1CN(Cc1ccc(Cl)cc1)Cc1ccc([N+](=O)[O-])s1
Ans: 21
